- target_entity: Inadl_1, Q8NI35
- Sequence (Q8NI35 113-229): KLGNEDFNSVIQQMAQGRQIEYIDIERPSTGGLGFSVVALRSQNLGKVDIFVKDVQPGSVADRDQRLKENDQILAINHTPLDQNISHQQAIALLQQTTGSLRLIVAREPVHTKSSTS
- protocol_notes: holdup assay
- Parameters: key: below the threshold = too weak to quantify, mostly under pKd 3.1 to 4
- recorded_conditions: plain residues with an end cap or a label only (N-terminal biotin on a linker: ado-ado)
measured_attribute: pKd

* DTKNYKQTSV [CRIPT, Q9P021] | below the threshold
* TISFTQTSQF [SLC1A1, P43005] | below the threshold
* PTPDLPQTRV [KLHDC7A, Q5VTJ3] | below the threshold
* EIPAQSPTCV [FZD10, Q9ULW2] | 3.58
* ARESQKVSHV [FAM110B, Q8TC76] | below the threshold
* EDLEDEWEVI [TECPR2, O15040] | below the threshold
* NISYRRESAI [KCNJ4, P48050] | below the threshold
* SFISKKEWYV [NECTIN1, Q15223] | 3.91
* AEASVACSLC [PTGIR, P43119] | below the threshold
* NVYGIESVKI [GRIA2, P42262] | below the threshold
* QSYPSKHDYV [CLDN18, P56856] | below the threshold
* PSHPRLQTHV [KIRREL2, Q6UWL6] | below the threshold
* GTGYDRKDYV [CLDN3, O15551] | below the threshold
* SLNANEVEWF [RNF130, Q86XS8] | 3.52
* TNSRHGETTV [FZD2, Q14332] | below the threshold
* DGVNEKVSCV [HTR2A, P28223] | below the threshold
